Target: human CYP2B6, CYP2B6 (gene 1555) (UniProt P20813)
Sequence (P20813 whole entry, looked up): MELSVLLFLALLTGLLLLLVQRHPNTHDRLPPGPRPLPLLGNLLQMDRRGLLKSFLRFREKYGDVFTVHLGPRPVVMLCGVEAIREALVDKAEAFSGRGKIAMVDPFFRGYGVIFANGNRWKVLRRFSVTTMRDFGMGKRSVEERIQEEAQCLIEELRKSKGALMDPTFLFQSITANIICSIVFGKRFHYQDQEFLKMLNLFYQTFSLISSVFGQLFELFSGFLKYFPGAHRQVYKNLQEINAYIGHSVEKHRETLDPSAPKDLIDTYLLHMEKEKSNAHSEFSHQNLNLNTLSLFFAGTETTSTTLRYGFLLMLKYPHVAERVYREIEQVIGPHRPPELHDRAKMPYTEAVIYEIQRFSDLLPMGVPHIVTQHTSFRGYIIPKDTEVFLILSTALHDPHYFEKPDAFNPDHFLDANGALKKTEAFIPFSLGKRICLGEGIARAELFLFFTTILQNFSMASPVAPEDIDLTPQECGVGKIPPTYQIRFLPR
Assay: NVS_ADME_hCYP2B6: NovaScreen (NVS) CYP450-related Enzyme Activity (ADME) Assay for human CYP2B6 (AID 2283101)
Records with an inconclusive call do not appear. Activity calls are given as the source filed them. The calls were made as follows: active = hit-call score of the fitted dose curve at least 0.9, where 1 is the maximum; inconclusive = response in the unintended direction; inactive = score below 0.9.
measured.parameter: AC50

compound: C#CCOC(=O)[C@@H](C)Oc1ccc(Oc2ncc(Cl)cc2F)cc1
result: 0.777 µM (active)

compound: O=C(c1ccc(O)cc1O)c1ccc(O)cc1O
result: 6.26 µM (active)

compound: C=CCOC(Cn1ccnc1)c1ccc(Cl)cc1Cl (centres undefined)
result: 0.188 µM (active)

compound: CCCCOCCOCCOCc1cc2c(cc1CCC)OCO2
result: 10 µM (active)

---

Read-out: glucuronosyltransferase (UGT1A1), UGT1A1 (gene 54658)
Test: CLD_UGT1A1_6hr: CellzDirect (CLD) Gene Expression Assay for glucuronosyltransferase (UGT1A1) at 6 hours (AID 2283672)
Inconclusive results are not listed. Active and inactive are the calls of the source. Rule for the calls: active = hit-call score of the fitted dose curve at least 0.9, where 1 is the maximum; inconclusive = response in the unintended direction; inactive = score below 0.9.
measured.parameter: outcome

molecule: CCOC(=O)[C@H](C)Oc1ccc(Oc2nc3ccc(Cl)cc3o2)cc1
measured.parameter: outcome
result: inactive
--
molecule: CCCCC(CC)COC(=O)c1ccccc1C(=O)O (stereo unspecified)
measured.parameter: outcome
result: inactive
--
molecule: CCCCOC(=O)C(C)Oc1ccc(Oc2ccc(C(F)(F)F)cn2)cc1 (stereo unspecified)
measured.parameter: outcome
result: inactive
--
molecule: CSC(=O)c1cccc2nnsc12
measured.parameter: outcome
result: inactive
--
molecule: COC(=O)c1c(Cl)nn(C)c1S(=O)(=O)NC(=O)Nc1nc(OC)cc(OC)n1
measured.parameter: outcome
result: inactive
--
molecule: c1ccc2[nH]c(-c3cscn3)nc2c1
measured.parameter: outcome
result: inactive
--
molecule: COC(=O)CSc1cc(N=c2sc(=O)n3n2CCCC3)c(F)cc1Cl
measured.parameter: outcome
result: inactive
--
molecule: C=CCOC(Cn1ccnc1)c1ccc(Cl)cc1Cl (stereo unspecified)
measured.parameter: outcome
result: inactive
--
molecule: CCOC(=O)C(C)Oc1ccc(Oc2nc3ccc(Cl)cc3o2)cc1 (stereo unspecified)
measured.parameter: outcome
result: inactive
--
molecule: S=C(S)NCCNC(=S)S.[Mn+2].[S-]C([S-])=NCCN=C([S-])[S-].[Zn+2]
measured.parameter: outcome
result: inactive
--
molecule: C#CCOC(=O)[C@@H](C)Oc1ccc(Oc2ncc(Cl)cc2F)cc1
measured.parameter: outcome
result: inactive

---

Read-out: Intercellular Adhesion Molecule 1 (ICAM1), ICAM1 (gene 3383)
Experiment: BSK_3C_ICAM1: BioMAP Diversity Plus: 3C Assay for Intercellular Adhesion Molecule 1 (ICAM1) Biomarker Activity (AID 2283003)
Conditions: primary human endothelial cells (HUVEC); actives raise or lower the signal
Active and inactive are the calls of the source. The calls were made as follows: active = hit-call score of the fitted dose curve at least 0.9, where 1 is the maximum; inactive = score below 0.9.
Possible outcomes: true = active, false = inactive

molecule: N[C@@H](Cc1cc(I)c(Oc2ccc(O)c(I)c2)c(I)c1)C(=O)O
class.name: false

molecule: O=C(Nc1ccc([N+](=O)[O-])cc1Cl)c1cc(Cl)ccc1O
class.name: true

molecule: CCC(C)OC(=O)N1CCCCC1CCO (configuration not stated)
class.name: false

molecule: CC1(C)C(C=C(Cl)Cl)C1C(=O)OCc1cccc(Oc2ccccc2)c1 (configuration not stated)
class.name: false

molecule: CCN(CC)C(=O)c1cccc(C)c1
class.name: false

molecule: CC(C)CCCCCCc1ccc(O)cc1
class.name: true

molecule: CCCCC(CC)CN1C(=O)C2C3C=CC(C3)C2C1=O (configuration not stated)
class.name: false
